Below, each entry is listed alongside its reported MBC.
Test system: E. coli R4 (ATCC 39543)
protocol: MIC and MBC, microtiter plate technique
Type: cell-based
study.conditions: Escherichia coli, ATCC39543
Field format: number, assumed µM, no unit text.

Past entries and their recorded results:
> print(dat)
                                   molecule  measured.metric  value.observed
1  CCCCN(C(C)=O)C(C(=O)NCc1ccccc1)c1ccc(O)c(O)c1 (centres unmarked)              MBC             1.7
2  COc1ccc(CN(C(=O)Cc2ccccc2)C(C(=O)NCc2ccccc2)c2ccc(O)c(O)c2)cc1 (centres unmarked)              MBC            1.15
3  CC(=O)N(C1CCCCC1)C(C(=O)NCc1ccc(F)cc1)c1ccc(O)c(O)c1 (centres unmarked)              MBC            1.47

Now examine the next entry.
QUERY: Report measured MBC; entry is COc1ccc(CNC(=O)C(c2ccc(O)c(O)c2)N(C(=O)Cc2ccccc2)C2CCCCC2)cc1 (centres unmarked)
RESULT: 1.29

====

protocol: MTT cytotoxicity assay
Type: cell-based
study.conditions: mouse, BALB/c3T3 mouse embryonic fibroblast cells; 1.0 µM, 24 h; read-out: cell viability
Each item that follows carries a reported viability at 24 h, 1 µM.
Give the quantity in %, number only.

> print(dat)
                                   compound          measured.metric  uom  value.observed
1  COc1ccc(CN(C(=O)Cc2ccccc2)C(C(=O)NCc2ccc(F)cc2)c2ccc(O)c(O)c2)cc1 (centres unmarked)  viability at 24 h, 1 µM    %            60.2

Now for the compound whose viability at 24 h, 1 µM we want.
QUERY: Give the reported viability at 24 h, 1 µM for this compound. CCCCN(C(C)=O)C(C(=O)NCc1ccc(OC)cc1)c1ccc(O)c(O)c1 (centres unmarked)
RESULT: 86.9

====

System: E. coli K12 (ATCC 25404)
protocol: MIC and MBC, microtiter plate technique
Assay type: cell-based
study.conditions: Escherichia coli, ATCC25404
# Lookup of reported MBC keyed by entry
Provide the reading as a plain figure in µM.

> print(dat)
                                   compound               system.name  measured.metric  value.observed
1  CCCCN(C(C)=O)C(C(=O)NCc1ccc(F)cc1)c1ccc(O)c(O)c1 (stereo not drawn)  E. coli K12 (ATCC 25404)              MBC            0.94

QUERY: Give reported MBC value for COc1ccc(CN(C(C)=O)C(C(=O)NCc2ccc(F)cc2)c2ccc(O)c(O)c2)cc1 (stereo not drawn)
RESULT: 0.77

QUERY: Name the recorded MBC of the compound listed here: CC(=O)N(C1CCCCC1)C(C(=O)NCc1ccccc1)c1ccc(O)c(O)c1 (stereo not drawn)
RESULT: 0.85

====

System: A. baumannii (ATCC 17978)
protocol: MIC and MBC, microtiter plate technique
Assay type: cell-based
study.conditions: ATCC17978; Acinetobacter baumannii; TTC
measured.metric: MBC (µM)
Response body: numeric value in µM, unit text excluded.

The cases that follow already have their MBC on record.
> print(dat)
                                   molecule  measured.metric  value.observed
1  CCCCN(C(=O)Cc1ccccc1)C(C(=O)NCc1ccc(F)cc1)c1ccc(O)c(O)c1 (centres unmarked)              MBC            1.05
2  CCCCN(C(C)=O)C(C(=O)NCc1ccc(F)cc1)c1ccc(O)c(O)c1 (centres unmarked)              MBC            1.31
3  COc1ccc(CN(C(=O)Cc2ccccc2)C(C(=O)NCc2ccccc2)c2ccc(O)c(O)c2)cc1 (centres unmarked)              MBC            0.68
4  COc1ccc(CN(C(C)=O)C(C(=O)NCc2ccc(F)cc2)c2ccc(O)c(O)c2)cc1 (centres unmarked)              MBC            1.03
5  CCCCN(C(C)=O)C(C(=O)NCc1ccc(OC)cc1)c1ccc(O)c(O)c1 (centres unmarked)              MBC            0.85

QUERY: Name the value of MBC reported for COc1ccc(CNC(=O)C(c2ccc(O)c(O)c2)N(Cc2ccc(OC)cc2)C(C)=O)cc1 (centres unmarked) when tested on A. baumannii (ATCC 17978).
RESULT: 1

QUERY: Write down the reported MBC (system: A. baumannii (ATCC 17978)) of CCCCN(C(=O)Cc1ccccc1)C(C(=O)NCc1ccccc1)c1ccc(O)c(O)c1 (centres unmarked)
RESULT: 0.82

QUERY: Report MBC under test system A. baumannii (ATCC 17978) for O=Cc1ccc(O)c(O)c1 [Compound 1, 3,4-dihydroxybenzaldehyde, reference compound] .
RESULT: 3.55
